- METHOD NOTES: Oral pharmacokinetics of ChA in beagle plasma
- Format: in vivo, beagles
- CONDITION LABEL: dog, 60 mg/kg

- COMPOUND: "O=C(/C=C/c1ccc(O)c(O)c1)O[C@@H]1C[C@](O)(C(=O)O)C[C@@H](O)[C@H]1O [ChA, Chlorogenic acid]"
  Tmax (h): 1.86

###

- METHOD NOTES: Oral pharmacokinetics of ChA in beagle plasma
- Type: in vivo, beagles
- CONDITION LABEL: dog, 60 mg/kg
QUANTITY KIND: half-life (min)

- SMILES STRING: "O=C(/C=C/c1ccc(O)c(O)c1)O[C@@H]1C[C@](O)(C(=O)O)C[C@@H](O)[C@H]1O"
  UNITS OF MEASURE: "min"
  RECORDED RESULT: 54.7

###

- METHOD NOTES: Oral pharmacokinetics of ChA in beagle plasma
- Format: in vivo, beagles
- CONDITION LABEL: dog, 60 mg/kg
QUANTITY KIND: AUC(0-inf) (ng·h/mL)

- SMILES STRING: "O=C(/C=C/c1ccc(O)c(O)c1)O[C@@H]1C[C@](O)(C(=O)O)C[C@@H](O)[C@H]1O"
  RECORDED RESULT: 6320

###

- METHOD NOTES: Oral pharmacokinetics of ChA in beagle plasma
- Type: in vivo, beagles
- CONDITION LABEL: dog, 60 mg/kg

- SMILES STRING: "O=C(/C=C/c1ccc(O)c(O)c1)O[C@@H]1C[C@](O)(C(=O)O)C[C@@H](O)[C@H]1O"
  Cmax: "2350 ng/mL"

###

- METHOD NOTES: Oral pharmacokinetics of ChA in beagle plasma
- Assay type: in vivo, beagles
- CONDITION LABEL: dog, 60 mg/kg

- SMILES STRING: "O=C(/C=C/c1ccc(O)c(O)c1)O[C@@H]1C[C@](O)(C(=O)O)C[C@@H](O)[C@H]1O"
  AUC(0-t) (ng·h/mL): 5590
